From: ChEMBL document CHEMBL1201862

tested on: NCI-H460; assay: NCI tumour cell line growth inhibition, 48 h
Calls of active or inactive are those of the source. Cut-off read from the data, not from the text of the source: active = GI50 up to about 1.1 µM and inactive = higher.
Property: GI50

[[record]]
compound = "CCOC(=O)/C(C#N)=C(/NNc1ccccc1)c1ccncc1C(=O)O"
measurement_target = "NCI-H460"
experimental_result = "> 28.1 µM (inactive)"

[[record]]
compound = "CCOC(=O)C1=C(C)N(NC(=O)Nc2ccccc2)C(=O)C1=P(c1ccccc1)(c1ccccc1)c1ccccc1"
measurement_target = "NCI-H460"
experimental_result = "38.6 µM (inactive)"

[[record]]
compound = "NCCSCCc1ccccc1"
measurement_target = "NCI-H460"
experimental_result = "> 100 µM (inactive)"

[[record]]
compound = "C=C[C@@]1(O)CCCC[C@@H]1CC(Sc1ccccc1)Sc1ccccc1"
measurement_target = "NCI-H460"
experimental_result = "13.4 µM (inactive)"

[[record]]
compound = "COc1nc2c(OC)cccc2c(OC)c1C=O"
measurement_target = "NCI-H460"
experimental_result = "> 100 µM (inactive)"

[[record]]
compound = "NNc1nnc(-c2nnc(NN)o2)o1"
measurement_target = "NCI-H460"
experimental_result = "> 10 µM (inactive)"

[[record]]
compound = "O=C(O)Cc1ccc2c(c1O)C(=O)c1c(ccc(CC(=O)O)c1O)C2=O"
measurement_target = "NCI-H460"
experimental_result = "> 100 µM (inactive)"

[[record]]
compound = "COc1ccc2c3c([nH]c(=O)c2c1C(=O)O)-c1ccccc1CC3"
measurement_target = "NCI-H460"
experimental_result = "> 100 µM (inactive)"

[[record]]
compound = "COC(=O)C1C(=O)CC(C)(O)C(C(=O)OC)C1c1ccc(N(C)C)cc1 (stereo unspecified)"
measurement_target = "NCI-H460"
experimental_result = "> 100 µM (inactive)"

[[record]]
compound = "CC1CCCCN1CC(=O)c1ccc2c(c1)Sc1ccccc1O2 (stereo unspecified)"
measurement_target = "NCI-H460"
experimental_result = "14.2 µM (inactive)"

[[record]]
compound = "O=C1c2c(Br)sc(Br)c2[C@@H](O)[C@H]1O"
measurement_target = "NCI-H460"
experimental_result = "17.2 µM (inactive)"

